# Tested on: SMN2 mRNA
# TEST DETAILS: RT-qPCR splicing assay, SMN2 canonical junction (CJ) mRNA
# Assay type: cell-based, human
# CONDITION NOTES: Homo sapiens; Table 5 panel; canonical junction qPCR; compound concentration having 50% response in CJ decrease; read-out: SMN2 IC50 (decrease in CJ mRNA levels)
pIC50: −log10 of the molar value. Counter-ions that a name gives are not always drawn.
compounds and their reported pIC50

Example results:
COMPOUND	TGT	RESULT TYPE	RESULT
Cc1cc(-c2cc(F)c3c(=O)n(C4CCNC5(CC5)C4)ncc3c2)cc2cn(C)nc12 (stereo not drawn)	SMN2 mRNA	pIC50	> 7.00
Cc1cn2nc(-c3cc4ccn(C5CCNCC5)c(=O)c4cc3O)cc(C)c2n1	SMN2 mRNA	pIC50	> 7.00

## Task Any idea what pIC50 was measured for CN1CCC(Nc2ccc3c(=O)n(-c4ccc5nn(C)cc5c4)cnc3c2)CC1 ?
## Result < 5.00

## Task Could you do the same for Cc1cc(-c2ccc3nc(N4CCN(C)CC4)[nH]c(=O)c3c2)cc2cn(C)nc12 , please?
## Result 6.00 to 7.00

## Task Could you do the same for Cc1cn2nc(-c3ccc4c(=O)n(C5CCNCC5)ccc4c3)cc(Oc3ccccc3F)c2n1 [Compound 544, hydrochloride] , please?
## Result > 7.00

## Task Could you do the same for Cc1cn2nc(-c3ccc4c(=O)n([C@@H]5CCN[C@H](C)C5)ncc4c3)cc(C)c2n1 , please?
## Result > 7.00

## Task Could you do the same for Cc1nc2c(F)cc(-c3ccc4c(=O)n(C5CCNCC5)ncc4c3)cc2o1 , please?
## Result > 7.00

## Task Could you do the same for Cc1cn2nc(-c3ccc4c(=O)n(C5CCNCC5)ccc4c3)cc(CC(N)=O)c2n1 , please?
## Result > 7.00

## Task Could you do the same for Cc1cn2nc(-c3cc(F)c4c(=O)n(C5CCNCC5)ccc4c3)cc(C)c2n1 , please?
## Result > 7.00

## Task Could you do the same for Cc1cn2cc(-c3ccc4c(=O)n(C5CCNCC5)cnc4c3)c(C)cc2n1 , please?
## Result 6.00 to 7.00

## Task Could you do the same for Cc1cn2nc(-c3ccc4c(=O)n(C5CCNCC5)ccc4c3)cc(CCO)c2n1 , please?
## Result > 7.00

## Task Could you do the same for Cc1cn2cc(-c3cc(S(C)(=O)=O)c4c(=O)n(C5CCNCC5)ccc4c3)cc(F)c2n1 , please?
## Result < 5.00

Origin of measurements: patent US20250332173A1
